# Experimental system: AhR (Homo sapiens, UniProt P35869)
# Construct: One of the resultant clones was named HEK-XRE 11.1, and used in the reporter gene assays; endogenous in cells; host or cells: HEK-XRE 11.1 (HEK cells stably carrying the AhR-responsive luciferase reporter X4-4.27 and phRL-CMV)
# Sequence (P35869 11-848): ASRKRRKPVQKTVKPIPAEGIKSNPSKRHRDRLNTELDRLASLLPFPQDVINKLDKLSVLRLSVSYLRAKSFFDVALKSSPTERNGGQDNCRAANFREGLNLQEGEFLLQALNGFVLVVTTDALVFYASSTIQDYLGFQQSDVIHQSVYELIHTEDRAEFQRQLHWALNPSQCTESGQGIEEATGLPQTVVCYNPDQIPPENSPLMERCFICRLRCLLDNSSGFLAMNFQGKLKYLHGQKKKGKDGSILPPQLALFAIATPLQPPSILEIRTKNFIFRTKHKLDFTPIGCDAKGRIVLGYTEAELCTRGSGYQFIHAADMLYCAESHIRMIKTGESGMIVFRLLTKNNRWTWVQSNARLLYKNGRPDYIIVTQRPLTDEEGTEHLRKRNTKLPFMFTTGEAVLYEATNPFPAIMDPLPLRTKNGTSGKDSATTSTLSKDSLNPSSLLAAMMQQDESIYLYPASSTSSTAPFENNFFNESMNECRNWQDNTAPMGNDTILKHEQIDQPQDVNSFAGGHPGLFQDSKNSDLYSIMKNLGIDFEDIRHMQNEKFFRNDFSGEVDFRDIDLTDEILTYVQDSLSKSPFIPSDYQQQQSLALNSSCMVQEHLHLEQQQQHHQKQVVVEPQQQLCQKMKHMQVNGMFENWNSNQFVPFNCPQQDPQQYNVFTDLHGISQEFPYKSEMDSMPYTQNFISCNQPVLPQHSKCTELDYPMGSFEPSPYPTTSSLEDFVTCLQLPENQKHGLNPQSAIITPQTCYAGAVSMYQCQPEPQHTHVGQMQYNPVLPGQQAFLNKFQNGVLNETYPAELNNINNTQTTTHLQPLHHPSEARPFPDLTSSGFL
# Test name: Inhibition of AhR-mediated gene transcription (HEK-XRE 11.1 luciferase reporter, MeBIO induction)
# Type: cell-based
# Recorded conditions: HEK-XRE 11.1 cells, MeBIO 0.1 nM, luminescence after 24 hours; Table 1
pIC50: −log10 of the molar value.
Property name: pIC50

// query Provide pIC50, recorded with AhR (Homo sapiens, UniProt P35869), of `Nc1c(C(=O)Nc2ccccc2)sc2ncc(Cl)cc12`
// result > 7.30

----------
# Experimental system: AhR (Homo sapiens)
# Construct: One of the resultant clones was named HEK-XRE 11.1, and used in the reporter gene assays; endogenous in cells; host or cells: HEK-XRE 11.1 (HEK cells stably carrying the AhR-responsive luciferase reporter X4-4.27 and phRL-CMV)
# Test name: Inhibition of AhR-mediated gene transcription (HEK-XRE 11.1 luciferase reporter, MeBIO induction)
# Format: cell-based
# Recorded conditions: HEK-XRE 11.1 cells, MeBIO 0.1 nM, luminescence after 24 hours; Table 1
Reported IC50 values for a set of compounds

Previously resolved entries follow.
# Smiles data, IC50
records = [
    ("Nc1c(C(=O)Nc2ccccc2)sc2ncc(Br)cc12", "< 50 nM"),
    ("COc1ccc(NC(=O)c2sc3ccc(C(F)(F)F)nc3c2N)cc1", "50 to 500 nM"),
    ("Nc1c(C(=O)Nc2ccc(F)cc2)sc2ncc(C(F)(F)F)cc12", "< 50 nM"),
]

// query Supply recorded IC50 for `Nc1c(C(=O)Nc2ccc(-c3cccnc3)cc2)sc2ncc(C(F)(F)F)cc12` here.
// result 50 to 500 nM

// query Return value of IC50 for input `Nc1c(C(=O)Nc2ccc(F)cc2)sc2cnc(C(F)(F)F)cc12` , no commentary.
// result < 50 nM

// query Given `Nc1c(C(=O)Nc2ccc(F)c(F)c2)sc2ncc(C(F)(F)F)cc12` , respond with its IC50.
// result < 50 nM

// query Hello, please tell me recorded IC50 for this one: `CCCc1cnc2sc(C(=O)Nc3ccccc3)c(N)c2c1`
// result < 50 nM

// query Supply recorded IC50 for `COCc1ccc(NC(=O)c2sc3ncc(C(F)(F)F)cc3c2N)cc1` here.
// result < 50 nM

// query Identify measured IC50 associated with `Nc1c(C(=O)Nc2cncnc2)sc2ncc(C(F)(F)F)cc12`
// result > 500 nM

----------
Item-by-item account of pIC50
# Experimental system: AhR (Homo sapiens)
# Construct: One of the resultant clones was named HEK-XRE 11.1, and used in the reporter gene assays; endogenous in cells; host or cells: HEK-XRE 11.1 (HEK cells stably carrying the AhR-responsive luciferase reporter X4-4.27 and phRL-CMV)
# Test name: Inhibition of AhR-mediated gene transcription (HEK-XRE 11.1 luciferase reporter, MeBIO induction)
# Assay type: cell-based
# Recorded conditions: HEK-XRE 11.1 cells, MeBIO 0.1 nM, luminescence after 24 hours; Table 1
pIC50: −log10 of the molar value.

Example entries and their recorded answers appear below.
# Smiles data, pIC50
records = [
    ("Nc1c(C(=O)Nc2cccc3cnccc23)sc2ncc(C(F)(F)F)cc12", "6.30 to 7.30"),
    ("Nc1c(C(=O)Nc2ccncc2)sc2cnc(C(F)(F)F)cc12", "6.30 to 7.30"),
    ("Nc1c(C(=O)Nc2ccc(C(F)(F)F)cc2)sc2ncc(C(F)(F)F)cc12", "> 7.30"),
    ("Nc1c(C(=O)Nc2ccc(Cl)c(Cl)c2)sc2ncc(C(F)(F)F)cc12", "6.30 to 7.30"),
]

// moving on: another record for pIC50
// query Output reported pIC50 of the compound `CCc1cnc2sc(C(=O)Nc3ccccc3)c(N)c2c1` on AhR (Homo sapiens).
// result 6.30 to 7.30
